These measurements were taken from the supplement of paper PMC10065799.

EXPERIMENTAL SYSTEM: EPHB1 (UniProt P54762)
Sequence (P54762 whole entry, looked up): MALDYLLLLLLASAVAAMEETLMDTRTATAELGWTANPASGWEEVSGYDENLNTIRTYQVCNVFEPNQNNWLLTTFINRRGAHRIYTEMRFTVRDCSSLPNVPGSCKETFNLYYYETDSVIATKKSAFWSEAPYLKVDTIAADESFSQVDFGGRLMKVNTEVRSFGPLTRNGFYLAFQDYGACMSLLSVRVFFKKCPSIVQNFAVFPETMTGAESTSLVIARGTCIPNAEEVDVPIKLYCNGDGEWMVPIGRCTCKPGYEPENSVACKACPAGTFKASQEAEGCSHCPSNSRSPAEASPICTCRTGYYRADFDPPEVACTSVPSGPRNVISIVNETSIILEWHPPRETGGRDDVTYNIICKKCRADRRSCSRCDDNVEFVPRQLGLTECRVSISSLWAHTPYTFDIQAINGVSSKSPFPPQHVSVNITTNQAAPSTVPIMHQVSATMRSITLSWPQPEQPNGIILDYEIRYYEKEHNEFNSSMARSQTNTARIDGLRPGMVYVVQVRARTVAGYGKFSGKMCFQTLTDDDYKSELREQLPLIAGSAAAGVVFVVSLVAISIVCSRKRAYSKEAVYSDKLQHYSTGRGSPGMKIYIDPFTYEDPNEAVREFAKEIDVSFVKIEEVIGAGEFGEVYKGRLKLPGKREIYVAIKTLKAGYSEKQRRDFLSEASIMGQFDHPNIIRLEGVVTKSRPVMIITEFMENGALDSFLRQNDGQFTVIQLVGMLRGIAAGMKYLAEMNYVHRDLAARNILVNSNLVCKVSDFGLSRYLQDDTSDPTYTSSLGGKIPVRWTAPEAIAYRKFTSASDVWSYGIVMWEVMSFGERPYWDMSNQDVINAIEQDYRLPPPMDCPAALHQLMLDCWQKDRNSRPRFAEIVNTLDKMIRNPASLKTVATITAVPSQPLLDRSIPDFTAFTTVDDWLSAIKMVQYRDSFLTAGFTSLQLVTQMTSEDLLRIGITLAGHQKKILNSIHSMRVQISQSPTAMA
ASSAY TEXT: phosphorylation enrichment, bacterial display (enrichment ratio); higher = better substrate or ligand; peptides without Tyr show the background
Provide the recorded phosphorylation enrichment for the entries that follow.
Would you mind answering with just the numeric figure?

q: // output phosphorylation enrichment; input GSERDYTYEEL [EIF2S2_Y174] ; system EPHB1 (UniProt P54762)
a: 0.602

q: // output phosphorylation enrichment; input ESMNTYLQTSP [NAT1_Y208] ; system EPHB1 (UniProt P54762)
a: 0.584

q: // output phosphorylation enrichment; input GFFDLYGGEKF [PTPN11_Y66_D61G_YF] ; system EPHB1 (UniProt P54762)
a: 0.603

q: // output phosphorylation enrichment; input YETSHYLASPD [CTNND2_Y1217_P1218L] ; system EPHB1 (UniProt P54762)
a: 0.59

q: // output phosphorylation enrichment; input MTRDIYETDFF [INSR_Y1185_YF] ; system EPHB1 (UniProt P54762)
a: 0.936

q: // output phosphorylation enrichment; input GTSLIYWTLFT [G6PC3_Y214] ; system EPHB1 (UniProt P54762)
a: 3.96

q: // output phosphorylation enrichment; input RPFFLYVAFHN [SGSH_Y174_D179N] ; system EPHB1 (UniProt P54762)
a: 0.74

q: // output phosphorylation enrichment; input VYSIDYYRVGG [NTRK2_Y706_T704I] ; system EPHB1 (UniProt P54762)
a: 4.12

q: // output phosphorylation enrichment; input TSFSGYRFHRH [NKAPL_Y94_YF] ; system EPHB1 (UniProt P54762)
a: 0.429

q: // output phosphorylation enrichment; input QMVGMYASSFM [AVPR2_Y124_YF] ; system EPHB1 (UniProt P54762)
a: 0.922

q: // output phosphorylation enrichment; input DVLEFYNSKKT [PAK1_Y131] ; system EPHB1 (UniProt P54762)
a: 0.517

q: // output phosphorylation enrichment; input YGMQLYQKYMH [GRB14_Y347_N349K] ; system EPHB1 (UniProt P54762)
a: 1.15

q: // output phosphorylation enrichment; input CSGNCYLDIRP [FBN1_Y1535_R1530C] ; system EPHB1 (UniProt P54762)
a: 0.452

q: // output phosphorylation enrichment; input KDHPDYKFQLR [SOX10_Y171_P175L_YF] ; system EPHB1 (UniProt P54762)
a: 0.49

q: // output phosphorylation enrichment; input NPQKPYFIRLY [WAS_Y83_S82P] ; system EPHB1 (UniProt P54762)
a: 0.561

q: // output phosphorylation enrichment; input MKSIKYMDKEI [CCDC60_Y41] ; system EPHB1 (UniProt P54762)
a: 0.399

----------
EXPERIMENTAL SYSTEM: c-Src SH2;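 also: peptide library displayed on the E. coli surface as eCPX fusions, selected cells deep-sequenced, score is each peptide's frequency after selection divided by its frequency in the input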
ASSAY TEXT: SH2 binding enrichment of the phosphorylated peptide, bacterial display (enrichment ratio); higher = better substrate or ligand; peptides without Tyr show the background
VALUE KIND: SH2 binding enrichment
Would you mind answering with just the numeric figure?

q: Indicate its recorded SH2 binding enrichment; the sequence in question is APVEDYGGGGG [B4GALT6_Y382_I379V]
a: 0.425

q: Indicate its recorded SH2 binding enrichment; the sequence in question is FMCKVYSDPQP [FGFR1_Y280]
a: 0.439

q: Indicate its recorded SH2 binding enrichment; the sequence in question is EEGRVYVYHLS [ITGAE_Y549_R552H]
a: 0.438

q: Indicate its recorded SH2 binding enrichment; the sequence in question is QTSTDYDIRFY [CSNK2A1_Y131_L128S]
a: 0.36

q: Indicate its recorded SH2 binding enrichment; the sequence in question is PIFEGYGLPHA [ACTA1_Y171_A172G_YF]
a: 0.516

q: Indicate its recorded SH2 binding enrichment; the sequence in question is HFVDEYDRTIE [KRAS_Y32_P34R]
a: 1.14

q: Indicate its recorded SH2 binding enrichment; the sequence in question is NPQKPYFIRLY [WAS_Y83_S82P]
a: 0.542

q: Indicate its recorded SH2 binding enrichment; the sequence in question is PFWKLYESVKK [MKI67_Y241]
a: 0.766

q: Indicate its recorded SH2 binding enrichment; the sequence in question is NVVQEYERVII [NPHS2_Y131_K126N]
a: 0.557

q: Indicate its recorded SH2 binding enrichment; the sequence in question is HNVPIYEGFGL [ACTA1_Y168_A172G_YF]
a: 0.513

q: Indicate its recorded SH2 binding enrichment; the sequence in question is HTDDGYMPMSP [IRS1_Y612]
a: 2.53

q: Indicate its recorded SH2 binding enrichment; the sequence in question is DTVRIYDDDFF [UBA1_Y560_E557V]
a: 0.909

q: Indicate its recorded SH2 binding enrichment; the sequence in question is MLEAPYVDRNS [F10_Y384_V382A]
a: 0.439

q: Indicate its recorded SH2 binding enrichment; the sequence in question is DVLEFYNSKKT [PAK1_Y131]
a: 0.752

q: Indicate its recorded SH2 binding enrichment; the sequence in question is IGEGTSGVVFK [CDK2_Y15_Y15S_YF]
a: 0.515

q: Indicate its recorded SH2 binding enrichment; the sequence in question is KLVDVYVNDAF [PGK1_Y161_G158V]
a: 0.764

q: Indicate its recorded SH2 binding enrichment; the sequence in question is QLGLQYSQGLV [EIF2B4_Y214_R209Q]
a: 0.375

q: Indicate its recorded SH2 binding enrichment; the sequence in question is HHTNEYEYDEL [TGM1_Y134_D132N]
a: 1

q: Indicate its recorded SH2 binding enrichment; the sequence in question is WFQTKYEELQI [KRT6B_Y360_YF]
a: 8.63

q: Indicate its recorded SH2 binding enrichment; the sequence in question is PDSVDYRKKGY [CTSK_Y121]
a: 0.686

q: Indicate its recorded SH2 binding enrichment; the sequence in question is TFSPPYYHRNC [HGD_Y333_R330S]
a: 0.703

q: Indicate its recorded SH2 binding enrichment; the sequence in question is RIFDYYSARKA [STOX1_Y858]
a: 0.469

q: Indicate its recorded SH2 binding enrichment; the sequence in question is DDYDLYGGEKF [PTPN11_Y66_Y62D]
a: 0.553

q: Indicate its recorded SH2 binding enrichment; the sequence in question is TNLVPYPRIHF [TUBA1A_Y262]
a: 0.619

q: Indicate its recorded SH2 binding enrichment; the sequence in question is CTTTHYNYMCN [TP53_Y234_I232T]
a: 10.6

q: Indicate its recorded SH2 binding enrichment; the sequence in question is SIKDKYVMALY [KCNH2_Y611_T613M]
a: 0.514

q: Indicate its recorded SH2 binding enrichment; the sequence in question is SYCYRYRCAAR [SUMF1_Y344]
a: 0.419

q: Indicate its recorded SH2 binding enrichment; the sequence in question is DTERIYDDDFF [UBA1_Y560]
a: 0.599

q: Indicate its recorded SH2 binding enrichment; the sequence in question is STFVPCEIKVQ [L1CAM_Y784_Y784C]
a: 0.497

q: Indicate its recorded SH2 binding enrichment; the sequence in question is STILLYHIMAW [GPR143_Y157]
a: 0.634

q: Indicate its recorded SH2 binding enrichment; the sequence in question is GRVLGYGAFGK [FLT4_Y853]
a: 0.556

q: Indicate its recorded SH2 binding enrichment; the sequence in question is GLPINYTTRRI [LAMA2_Y2894]
a: 0.325
